// provenance: paper PMC3817407

- TARGET_UNDER_TEST: T1, ECF27_4265
- T1 chain: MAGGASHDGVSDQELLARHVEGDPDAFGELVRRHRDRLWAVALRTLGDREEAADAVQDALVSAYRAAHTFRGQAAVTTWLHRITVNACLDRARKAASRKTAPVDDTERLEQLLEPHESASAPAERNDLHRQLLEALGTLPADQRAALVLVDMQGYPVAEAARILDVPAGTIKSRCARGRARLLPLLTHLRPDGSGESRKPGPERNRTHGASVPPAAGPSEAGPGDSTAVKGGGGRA
RECORDED_METRIC: fold repression
Give a plain numeric answer without units written out.

Lookup: Item under review: AS33_423 (protein) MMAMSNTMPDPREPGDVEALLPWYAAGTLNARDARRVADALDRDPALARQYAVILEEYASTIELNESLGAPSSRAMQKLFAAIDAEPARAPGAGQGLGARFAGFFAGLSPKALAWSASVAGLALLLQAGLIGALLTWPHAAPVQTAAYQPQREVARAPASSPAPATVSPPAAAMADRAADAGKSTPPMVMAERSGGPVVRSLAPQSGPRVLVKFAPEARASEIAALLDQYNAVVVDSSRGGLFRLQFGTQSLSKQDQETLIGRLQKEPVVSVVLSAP . Reported fold repression?
Found: 5.38
